assay: NCI Yeast Anticancer Drug Screen. Data for the mlh1 rad18 strain (AID 175); conditions: S. cerevisiae mlh1 rad18 strain growth inhibition; at 50.0 µM
About 79,000 compounds went through this panel and 15% of them were active in at least one assay; those are over-represented in the sample as a whole. Activity calls are given as the source filed them. Rule as the data show it: active = growth inhibition above about 70%; inactive = the rest.
Classes used: active, inactive

Compound	Assigned class
N#CC1=C(c2ccccc2)C(=C2Nc3ccccc3N2)C2S/C(=C\c3ccccc3)C(=O)N2C1=N (stereo not given)	inactive
COc1cc(C(=O)C/C(CCC(=O)Nc2ccccc2[N+](=O)[O-])=N\NC(=O)C(N)=O)ccc1O	inactive
CC(C)(C)OC(=O)NCS(=O)(=O)N(Cc1ccccc1)Cc1ccccc1	active
CCOC(=O)OCCCc1ccccc1	inactive
CC(=O)OC1C(=C(Br)Br)C(COC(=O)c2ccccc2)OC1n1cnc2c(NC(=O)c3ccccc3)ncnc21 (stereo not given)	inactive
Cc1ccc(C)c(NC(=O)CCC(=O)C(C#N)c2nc3ccccc3s2)c1 (stereo not given)	inactive
O=c1[nH]cc(COCC(O)CO)c(=O)[nH]1 (stereo not given)	inactive
CC(=O)C(C)C(C)=O	inactive
CCCCCCCCCCCCCCCCCCCCCCCCCC	inactive
C[N+](C)(C)CCC(=O)CC[N+](C)(C)C	inactive
N#C/C(=C/c1cccc([N+](=O)[O-])c1)C(=O)O	inactive
O=C(/C=C/c1ccc(O)cc1)c1ccc(O)cc1	inactive
C1=Nc2ccccc2/C1=C/c1cccs1	inactive
CCCCCCC(C)CC(=O)O (stereo not given)	inactive
CCOC(=O)/C=C(\N=P(c1ccccc1)(c1ccccc1)c1ccccc1)C(F)(F)C(F)(F)C(F)(F)C(F)(F)C(F)(F)F	inactive

----------
experiment: NCI Yeast Anticancer Drug Screen. Data for the mlh1 rad18 strain (AID 175); conditions: S. cerevisiae mlh1 rad18 strain growth inhibition; at 50.0 µM; stronger effect = higher value
This is part of a sample that, as a whole, favours compounds with a hit. Of some 79,000 tested, about 15% had one in any assay.
Examples of molecules with documented growth inhibition follow.
Metric: growth inhibition (%)

Molecule	Metric	Observed result
O=S(=O)(O)c1cccc2ccc(O)cc12	growth inhibition	43.6
O=C1CCCNC(=O)CCCN1	growth inhibition	-5.9
CC1(C)Nc2cc3c(cc2-n2cccc21)oc1ccccc13	growth inhibition	27.4
COc1cc2c(cc1OC)C1CC(O)(c3nccc4cc(OC)c(OC)cc34)CCN1CC2 (stereo not drawn)	growth inhibition	-14.1
Cc1ccc(S(=O)(=O)OC2C3OC(C)(C)OC3OC2C2CSC(=S=O)S2)cc1 (stereo not drawn)	growth inhibition	12.7
O=C1/C=C2/C=CC=CN2C(=O)/C=C2/C=CC=CN12	growth inhibition	-11.9
CCCCCCCCCCCCCCCC(=O)OCC(COP(=O)(O)OC1CCC2(C)C(=CCC3C2CCC2(C)C(C(C)CCCC(C)C)CCC32)C1)OC(=O)CCCCCCCCCCCCCCC (stereo not drawn)	growth inhibition	-4.8
O=S1(=O)OCCOS(=O)(=O)C1(I)I	growth inhibition	16.2
Cc1cc(O)c(C(c2c(O)cc(C)c(Cl)c2C)C(Cl)(Cl)Cl)c(C)c1Cl	growth inhibition	18.2
O=[N+]([O-])c1cc(F)c(F)cc1F	growth inhibition	26.9
N#CCC(=O)N1CCCCCCC1	growth inhibition	0
O=C(Nc1cccc([N+](=O)[O-])c1)C1C(=O)N(c2cccc([N+](=O)[O-])c2)C(=O)/C1=N/O (stereo not drawn)	growth inhibition	-3.5
COc1ccc(Br)c(C=O)c1NC(C)=O	growth inhibition	-4.1
